Reference source for all entries: the supplement of paper PMC6555819

Hi there, I'd appreciate the recorded PBM binding z-score for every entry that follows.
- Test system: PPARg:RXRa 90nM:30nM, anti-RXR (NR concentration 90 nM, RXRa partner concentration 30 nM)
- experimentSummary: PBM binding z-score (relative to random genomic background probes); higher = stronger binding; sequences stand for … in GC…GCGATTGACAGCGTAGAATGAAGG
Answer with the value's number alone.

Indicate its recorded PBM binding z-score; the sequence in question is CGAACTAGGTCATTGAAAGGACAGTGAATAGTAA
5.83

Specify PBM binding z-score for TCTGCTAGGTCAGTTGGTCAGCTACCGAGCTGCC and stop.
1.29

Determine from records and report PBM binding z-score for GGAACGAGGGCATTTGAGTTGATAGCATGGCGAT
0.257

Specify reported PBM binding z-score for the sequence shown: AGTCTAAGTTCACTAGGTAACGTAAGATTCAGCT
3.02

Provide only the value of recorded PBM binding z-score for CCTTTCGGGTCACTCCAGGTTATAGCATCGGAGT
2.75

For the sequence CCTATTGGGCCAAAAAGGTCATTGATGCCGATAA , give its measured PBM binding z-score value.
2.81

Quote PBM binding z-score reported for ATCTGTAGGTTACATCCGGGTCATTCAGGCTATG please.
1.83

Determine its reported PBM binding z-score: TCTCCGAGGACACGAAGGTCAGAGCTTTCCAGAG
2

Supply measured PBM binding z-score of CCTACTGGGCCATCAGGTCATTGATATCAACGTT in your reply.
3.18

Give the value of PBM binding z-score reported for the following: TGAATGAGGTTATAAGATCACGGAACGTTGCAAA
2.05

Entry GCAGGCAGGTGAAACGCAGGTAACTCAGGGTGGC needs its PBM binding z-score filled in; supply it.
-0.6

Supply PBM binding z-score value. Item: ACTAACGGGTCAACGAGGTTATAGCACGCGTATA
2.98

Please supply the value of reported PBM binding z-score for the item GCATATTGGTAATACAAGGTGAAAGTCCGATTGT
0.00917

Identify the reported PBM binding z-score for the following entry. TCCATTAGTTGATTAGGGCAACCGAAACAGCGGA
2.76

Give a short answer stating reported PBM binding z-score for CTACCAAGGTGAACCAGGTCGTTGATTACTATTC .
0.58

Provide measured PBM binding z-score value, entry: CCAGACAGGTGAGAAGGTAACCCAGCCTCGATTA
0.118

Hello, please tell me recorded PBM binding z-score for this one: ACAGACAGGAGAGTGAAGGTAACTCAGCTGGACG
0.343

Could you please provide reported PBM binding z-score for ATCTCTAGGTAAATATAGTTCAGTGAATGCAAAT ? Thanks!
1.05

State, in one line, measured PBM binding z-score of TCATATAGGTAAAAGGTGATAGTCGGTGTGGTAA
8.56

Please give the documented PBM binding z-score of TCAGTCAGGTGAAGGTAACTCAGGTACGCAGTCG
2.69

---

Would you kindly list PBM binding z-score for each of these sequences?
- Tested on: RARg:RXRa (NR concentration 270 nM, RXRa partner concentration 90 nM)
- experimentSummary: PBM binding z-score (relative to random genomic background probes); higher = stronger binding; sequences stand for … in GC…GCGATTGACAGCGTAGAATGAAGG
In your answer, state the number alone without any accompanying words.

Retrieve PBM binding z-score measured for GATACAGGGTCAAGGCCAGAGTCCGCGTATTGAT and print it.
5.35

# return recorded PBM binding z-score for entry ACTAGCAGGCCAAGGGTCTCTCAAGATTAGTCCG
-0.0301

Give the reported value of PBM binding z-score for this record: GCTTTCGGGTCAAAGGTTATAGCATGAATAGAAT
7.01

Kindly indicate its recorded PBM binding z-score. Item: CTCGAAAGGTTGGTTGAGGTGAGTATACGGATAA
0.599

Quote PBM binding z-score reported for TGAATGAGGTTCTAAGATCAGGGAACGTTGCAAA please.
-0.113

---

- Tested on: PPARa:RXRa (NR concentration 270 nM, RXRa partner concentration 90 nM)
- experimentSummary: PBM binding z-score (relative to random genomic background probes); higher = stronger binding; sequences stand for … in GC…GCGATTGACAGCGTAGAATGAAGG
Output t for PBM binding z-score not less than 2; output f otherwise.

Does the sequence GGAAGGAGGGCAAAGTTGATAGCATCTGTCGACG have recorded PBM binding z-score that is 2 or more?
t

Is PBM binding z-score for TCATATCGGTAAAGGTGAAAGTCGAACGATATGA at or above 2?
t

Threshold query (PBM binding z-score >= 2) on CCTACTGGGCCATTCAGAGGTCATTAATCATATG
t

Check this sequence for PBM binding z-score at or above 2: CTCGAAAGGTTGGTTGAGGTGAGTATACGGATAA
f

Does PBM binding z-score meet or surpass 2 for ACTTACGGGTCAACGAGGTTATAGCGCGCGTATA ?
t

Can CCTGCTAGGTCAGGGTCAGCTAATCTACAGTATG be said to have PBM binding z-score at or above 2?
t

Please indicate if the recorded PBM binding z-score for TTACCAGGGTGAAGGTCGTTGATCCCTCTGTAGA meets or exceeds 2.
t

Given GCGACTGGGGCAAAGCACGTTACCATAAGGTTGG , state whether its PBM binding z-score is at least 2.
f

Item TCTATTAGTTCATTAGGGCAACCGAAACAGCGGA with PBM binding z-score of 2 or above?
t

Could you verify whether the entry CAAACTAGGTCAAGGTCAAGGTCGGTTTGTGCCA shows PBM binding z-score of no less than 2?
t

Form field: PBM binding z-score at least 2? Entry: ACAGACAGGAGATGAAGGTAACTCAGGCTATCAT
f

Given the entry TTACCAAGGTGAAAAGTCGTTGATGCACGCCTTG , answer whether its PBM binding z-score meets or surpasses 2.
t

In plain terms: is recorded PBM binding z-score at least 2 for GCTAGCAGGCCATTTTGGTCACTCAATGACGGGC ?
f

Answer whether PBM binding z-score of TCTGCTAGGTCAACGATGGTCAGCTAGTCTGCTA is greater than or equal to 2.
t

Item AGAACGAGGGCACGCTGAGTTGATAGAAGAGTAG with PBM binding z-score of 2 or above?
t

Textbook exercise: given the entry GCTTGTAGATCAAGGTTAAGCAAGACTAAGCTAA , state whether its PBM binding z-score is greater than or equal to 2.
f

Quick check: does CCCACTGGGCCAAAAAGGTCATTGATGCCGATAA have PBM binding z-score greater than or equal to 2?
t

Entry ATCGAAAGGTCGCGGTGAGTATAGAGAAAGGGAA : is its PBM binding z-score no less than 2?
t

API: above_or_equal(metric=PBM binding z-score, cutoff=2) for item ACTCGGAGGCCAAAGGTCAGAGCTACGCCAGTGA
t

Is the recorded value of PBM binding z-score equal to or greater than 2 for this sequence? CCGAGTAGGTTATTGGGCATTCAGGCAACGGTGA
f

I'd appreciate it if you could say whether CGAACTAGGTCATTGACAGGACAGTTAATAGTAA has PBM binding z-score at least equal to 2.
t

Record TGTCAAAGTTCAAAGATAACGTAAGTATCCACAC ; criterion: PBM binding z-score no lower than 2. Met?
t

Please indicate if the recorded PBM binding z-score for ATCACTAGGTAACCAAGTTCAGTGAATGCCGAAC meets or exceeds 2.
f

Is reported PBM binding z-score greater than or equal to 2 here: CTTACTGGGCCATTCAGAGGTCATTGATCATATG
t

Is PBM binding z-score for TCTTGTAGATCTAGCAGGTTAAGAAAGCCTGAGT at or above 2?
f

Please check the record AGAATGAGGTGATACGTAGATCAGGGAAGAAAGT and state if its PBM binding z-score is at or above 2.
f

Is reported PBM binding z-score greater than or equal to 2 here: CCTACTGGGCCACGAAACGTCATTGATTCAGTGA
f

For this sequence, is measured PBM binding z-score 2 or higher? GCATATAGGTAATACAAGGTGATAGTCCGATTGT
f

---

- System: PPARg:RXRa (NR concentration 180 nM, RXRa partner concentration 90 nM)
- experimentSummary: PBM binding z-score (relative to random genomic background probes); higher = stronger binding; sequences stand for … in GC…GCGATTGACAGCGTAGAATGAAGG
recordedEndpoint: PBM binding z-score
Keep it simple and answer with nothing but the number.

Write down PBM binding z-score measured for item ATCTCTAGGTAAAGACAGTTCAGTGAATGCAAAT
0.336

Supply reported PBM binding z-score belonging to this sequence: ATCTCTAGGTAACAAGTCCAGTGAAAGAGAGGAC
1.2

Tell me its PBM binding z-score given AGAATGAGGTTACCAAAGATTAGGGAAACGCTTG as the entry.
2.43

Quote PBM binding z-score reported for GCTGTTAGGTCAACTGATGGTCAGCTAAAGCTCG please.
2

Output measured PBM binding z-score for this item: TAGCCTAGGTCATTGGGCCACTATAGTACGCATC
4.65

Specify PBM binding z-score for CCAAGTTGGTCAAGGTCACACACGCTATAGGTAC and stop.
3.48
